# TARGET_DESC: AalbOR10 (Aedes albopictus)
# Sequence (A0ABM1Y0Z3 1-403): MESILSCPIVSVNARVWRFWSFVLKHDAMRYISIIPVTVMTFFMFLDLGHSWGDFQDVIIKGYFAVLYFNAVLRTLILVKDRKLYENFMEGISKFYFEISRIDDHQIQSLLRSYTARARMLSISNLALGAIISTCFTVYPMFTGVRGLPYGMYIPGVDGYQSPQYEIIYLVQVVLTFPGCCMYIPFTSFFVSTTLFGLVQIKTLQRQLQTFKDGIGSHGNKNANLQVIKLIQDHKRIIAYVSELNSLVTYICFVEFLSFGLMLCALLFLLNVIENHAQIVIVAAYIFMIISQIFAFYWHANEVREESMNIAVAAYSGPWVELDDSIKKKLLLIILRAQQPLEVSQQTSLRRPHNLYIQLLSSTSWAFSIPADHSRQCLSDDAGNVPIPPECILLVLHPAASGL
# Sequence (A0ABM1ZN50 1-479 partner): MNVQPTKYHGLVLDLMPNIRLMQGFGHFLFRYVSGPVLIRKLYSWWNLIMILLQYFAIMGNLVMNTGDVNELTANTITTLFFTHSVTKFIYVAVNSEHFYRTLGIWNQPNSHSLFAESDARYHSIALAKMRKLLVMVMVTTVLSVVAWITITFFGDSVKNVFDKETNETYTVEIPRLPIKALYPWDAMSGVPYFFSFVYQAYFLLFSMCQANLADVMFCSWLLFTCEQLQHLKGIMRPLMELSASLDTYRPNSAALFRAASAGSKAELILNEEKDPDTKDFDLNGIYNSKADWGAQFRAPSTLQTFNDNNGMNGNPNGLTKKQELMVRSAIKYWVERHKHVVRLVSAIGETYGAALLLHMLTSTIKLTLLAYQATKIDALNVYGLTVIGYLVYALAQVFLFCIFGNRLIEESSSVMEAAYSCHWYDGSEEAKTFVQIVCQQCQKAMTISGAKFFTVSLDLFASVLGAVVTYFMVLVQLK
# ASSAY_METHOD_TEXT: two-electrode voltage clamp, Xenopus oocytes
MEASUREMENT_NAME: EC50 (µM)
Respond with the bare value in µM.

c1ccc2[nH]ccc2c1 [indole] ... 23.7

Let's switch to this compound now.
Item under review: Cc1c[nH]c2ccccc12 [skatole] . Reported EC50? 3.9

Recorded values, source paper doi:10.1101/2025.06.07.658027v2.
